- Test system: HIV-1 NL 4-3
- MEASUREMENT PROTOCOL: HIV-1 infection of C8166 cells (syncytia formation, p24 ELISA) with HIV-1 NL 4-3
- Type: cell-based
- Set-up: key: ++, +, (+), (+)− and − represent decreasing numbers of syncitia formed; ++, +, (+), (+)− and − represent decreasing numbers of syncitia formed; ++, +, (+), (+)− and − represent decreasing numbers of syncitia formed; ++, +, (+), (+)− and − represent decreasing numbers of syncitia formed; ++, +, (+), (+)− and − represent decreasing numbers of syncitia formed
- PARTICULARS: 0.05 μM; Day 6; C8166 cells
Square brackets hold non-standard residues; d marks the D form. Peptide text beside a SMILES is read from it. Ava = NCCCCC(=O)O

COMPOUND	syncitia formed, Day 6
C[C@H](NC(=O)[C@H](CCCNC(=N)N)NC(=O)CNC(=O)[C@@H]1CCCN1C(=O)CN)C(=O)NCCCCC(=O)O [GPGRA valeric acid, GPGRA-NHCH2CH2CH2CH2COOH] (H-GPGRA[Ava]-OH; N-terminus assumed)	+
N=C(N)NCCC[C@H](NC(=O)CNC(=O)[C@@H]1CCCN1C(=O)CN)C(=O)NCCCCC(=O)O [GPGR valeric acid, GPGR-NHCH2CH2CH2CH2COOH] (H-GPGR[Ava]-OH; N-terminus assumed)	+
N=C(N)NCCC[C@H](NC(=O)CNC(=O)[C@@H]1CCCN1C(=O)CN)C(=O)O [GPGR, reference compound] (H-GPGR-OH; N-terminus and C-terminus assumed)	+
NCC(=O)N1CCC[C@H]1C(=O)NCC(=O)NCCCCC(=O)O [GPG valeric acid, GPG-NHCH2CH2CH2CH2COOH] (H-GPG[Ava]-OH; N-terminus assumed)	(+)

----------
- Test system: HIV-1 NDK
- MEASUREMENT PROTOCOL: HIV-1 infection of C8166 cells (syncytia formation, p24 ELISA) with HIV-1 NDK
- Assay type: cell-based
- Design: key: ++, +, (+), (+)− and − represent decreasing numbers of syncitia formed; ++, +, (+), (+)− and − represent decreasing numbers of syncitia formed; ++, +, (+), (+)− and − represent decreasing numbers of syncitia formed; ++, +, (+), (+)− and − represent decreasing numbers of syncitia formed; ++, +, (+), (+)− and − represent decreasing numbers of syncitia formed
- PARTICULARS: 5 μM, Day 7
- Experimental: HIV-1 NL 4-3 isolate (Adachi et al., 1986; Barré-Sinoussi et al., 1983) and highly cytopathic Zairian HIV-1 NDK isolate (Ellrodt et al., 1984) was propagated in permissive CEM cells (Nara et al., 1987). […] Samples of 3×10^5/100 μL C8166 cells were preincubated in 96-well microtiter plates in culture medium containing various concentrations of peptide. […] Toxicity was evaluated by daily cell count and trypan-blue exclusion assay. […]
Square brackets hold non-standard residues; d marks the D form. Peptide text beside a SMILES is read from it. Ava = NCCCCC(=O)O
ENDPOINT NAME: syncitia formed, Day 7

MOLECULE	ENDPOINT NAME	RESULT VALUE
C[C@H](NC(=O)[C@H](CCCNC(=N)N)NC(=O)CNC(=O)[C@@H]1CCCN1C(=O)CN)C(=O)N[C@@H](Cc1ccccc1)C(=O)NCCCCC(=O)O [SPC3 monomer valeric acid, GPGRAF-NHCH2CH2CH2CH2COOH] (H-GPGRAF[Ava]-OH; N-terminus assumed)	syncitia formed, Day 7	−
NCC(=O)N1CCC[C@H]1C(=O)NCC(=O)O [GPG, reference compound] (H-Gly-Pro-Gly-OH)	syncitia formed, Day 7	+
N=C(N)NCCC[C@H](NC(=O)CNC(=O)[C@@H]1CCCN1C(=O)CN)C(=O)O [GPGR, reference compound] (H-GPGR-OH; N-terminus and C-terminus assumed)	syncitia formed, Day 7	++
N=C(N)NCCC[C@H](NC(=O)CNC(=O)[C@@H]1CCCN1C(=O)CN)C(=O)NCCCCC(=O)O [GPGR valeric acid, GPGR-NHCH2CH2CH2CH2COOH] (H-GPGR[Ava]-OH; N-terminus assumed)	syncitia formed, Day 7	+

Kindly consider the entry below.
Query: Return the recorded syncitia formed, Day 7 value; entry: NCC(=O)N1CCC[C@H]1C(=O)NCC(=O)NCCCCC(=O)O [GPG valeric acid, GPG-NHCH2CH2CH2CH2COOH] (H-GPG[Ava]-OH; N-terminus assumed)
Response: (+)
